- assay: In-vivo radioactivity distribution experiment using normal mice (Example 2)
- particulars: normal mice, intravenous, 60 min; Example 2 numbering
In-vivo radioactivity distribution: spleen by entry:

Look over these answered cases.
# compound, observed_result
measured = [
    ("CN(C)c1ccc(C(=O)/C=C/c2ccc(I)cc2)cc1 [Compound 10 in Example 2, 4-iodo-4′-dimethylaminochalcone]", "0.89 (0.12) percent of the dose/g"),
    ("CNc1ccc(C(=O)/C=C/c2ccc(I)cc2)cc1 [Compound 7 in Example 2, 4-iodo-4′-methylaminochalcone]", "0.71 (0.19) percent of the dose/g"),
    ("CN(C)c1ccc(C=CC(=O)c2ccc(I)s2)cc1 [Compound 14 in Example 2]", "3.03 (0.31) percent of the dose/g"),
]

Q) Read off the recorded In-vivo radioactivity distribution: spleen for CNc1ccc(C=CC(=O)c2ccc(I)s2)cc1 [Compound 13 in Example 2]
A) 2.52 (0.36) percent of the dose/g

###

- assay: In-vivo radioactivity distribution experiment using normal mice (Example 2)
- particulars: normal mice, intravenous, 60 min; Example 2 numbering
measured_metric: In-vivo radioactivity distribution: brain

Look over these answered cases.
# compound, observed_result
data = [
    ("CNc1ccc(C(=O)/C=C/c2ccc(I)cc2)cc1 [Compound 7 in Example 2, 4-iodo-4′-methylaminochalcone]", "0.40 (0.08) percent of the dose/g"),
    ("CN(C)c1ccc(C=CC(=O)c2ccc(I)s2)cc1 [Compound 14 in Example 2]", "0.21 (0.02) percent of the dose/g"),
    ("CNc1ccc(C=CC(=O)c2ccc(I)s2)cc1 [Compound 13 in Example 2]", "0.15 (0.03) percent of the dose/g"),
]

Query compound follows.
Q) Read off the recorded In-vivo radioactivity distribution: brain for CN(C)c1ccc(C(=O)/C=C/c2ccc(I)cc2)cc1 [Compound 10 in Example 2, 4-iodo-4′-dimethylaminochalcone]
A) 0.42 (0.11) percent of the dose/g

###

- assay: In-vivo radioactivity distribution experiment using normal mice (Example 2)
- particulars: normal mice, intravenous, 30 min; Example 2 numbering
measured_metric: In-vivo radioactivity distribution: stomach

Look over these answered cases.
# smiles_input, observed_result
data = [
    ("CN(C)c1ccc(C=CC(=O)c2ccc(I)s2)cc1", "9.81 (6.47) percent of the dose"),
    ("CNc1ccc(C(=O)/C=C/c2ccc(I)cc2)cc1", "0.70(0.11) percent of the dose"),
    ("CN(C)c1ccc(C(=O)/C=C/c2ccc(I)cc2)cc1", "0.73 (0.23) percent of the dose"),
]

Query compound follows.
Q) Read off the recorded In-vivo radioactivity distribution: stomach for CNc1ccc(C=CC(=O)c2ccc(I)s2)cc1
A) 9.94 (1.69) percent of the dose

###

In-vivo radioactivity distribution: blood by entry:
- assay: In-vivo radioactivity distribution experiment using normal mice (Example 2)
- particulars: normal mice, intravenous, 30 min; Example 2 numbering

# smiles_input, observed_result
measured = [
    ("CN(C)c1ccc(C(=O)/C=C/c2ccc(I)cc2)cc1", "1.51 (0.40) percent of the dose/g"),
    ("CNc1ccc(C(=O)/C=C/c2ccc(I)cc2)cc1", "1.15 (0.57) percent of the dose/g"),
    ("CN(C)c1ccc(C=CC(=O)c2ccc(I)s2)cc1", "2.92 (0.60) percent of the dose/g"),
]

Q) Read off the recorded In-vivo radioactivity distribution: blood for CNc1ccc(C=CC(=O)c2ccc(I)s2)cc1
A) 2.29 (0.32) percent of the dose/g
